# Assay summary: physchem
# Conditions: 35 °C
Observable: solubility

Reported solubility ( CSCC[C@H](N)C(=O)O ) = ~70 mg/mL

* * *

# Assay summary: physchem
# Conditions: concentrated fermentation supernatant with added solvent, 4 °C, aqueous with cosolvent or surfactant or cyclodextrin, Residual solubility L-Methionine, Methanol, ratio 70% by weight
Observable: solubility

What the record says about CSCC[C@H](N)C(=O)O : solubility is 5000 to 6000 µg/mL

* * *

# Assay summary: physchem
# Conditions: concentrated fermentation supernatant with added solvent, 4 °C, aqueous with cosolvent or surfactant or cyclodextrin, Residual solubility L-Methionine, Isopropanol, ratio 70% by weight
Observable: solubility

So for CSCC[C@H](N)C(=O)O , the logged solubility turned out to be 4000 to 5000 µg/mL

* * *

# Assay summary: physchem
# Conditions: concentrated fermentation supernatant with added solvent, aqueous with cosolvent or surfactant or cyclodextrin, Residual solubility L-Methionine, Isopropanol, ratio 70% by weight, room temperature
Observable: solubility

solubility reported for this compound CSCC[C@H](N)C(=O)O [L-methionine] : 5 to 6 mg/mL

Reference source: patent US20180355390A1
